Tested on: blackgrass (Alopecurus myosuroides)
Protocol details: Test A postemergence
Assay type: in vivo
Experimental conditions: Alopecurus myosuroides, post-emergence, 240 h, Postemergence, 500 g ai/ha; visual injury, 0 to 100 scale (0 no effect, 100 complete control), approx. 10 d; read-out: Plant response rating, Blackgrass
Form field: pest or weed control at 500 g/ha (one value per entry).
Your answer should be a plain number; it is taken to be in %.

Hello, I am looking for reported pest or weed control at 500 g/ha with blackgrass (Alopecurus myosuroides) for `COc1cc([C@H]2CN(C)C(=O)[C@@H]2C(=O)Nc2ccccc2F)ccc1F` . Could you help?
0

Same again, this time with `CCc1ccc([C@H]2CNC(=O)[C@@H]2C(=O)Nc2c(F)cccc2F)cc1`
0

Same again, this time with `CN1C[C@H](c2cccc(C(C)(F)F)c2)[C@@H](C(=O)Nc2ccc(F)cc2F)C1=O`
80

Same again, this time with `CN1C[C@H](c2ccc(C(F)(F)F)cc2)[C@@H](C(=O)Nc2cccc(F)c2C#N)C1=O`
60

Then there is this molecule:
Hello, I am looking for reported pest or weed control at 500 g/ha with blackgrass (Alopecurus myosuroides) for `CN1C[C@H](c2ccc(F)c(C#N)c2)[C@@H](C(=O)Nc2cccc(F)c2F)C1=O` . Could you help?
60

###

Tested on: ivy-leaved morning glory (Ipomoea hederacea)
Protocol details: Test G Post-Emergence Protocol
Assay type: in vivo
Experimental conditions: Ipomoea, post-emergence, 312 h, 250 g ai/ha, evaluated after 13 days, 100=total damage to plant, 0=no damage to plant, read-out: Morningglory, Ivy-leaved damage rating
Source text: Seeds of corn (Zea mays), giant foxtail (Setaria faberi), barnyardgrass (Echinochloa crus-galli), ivy-leaved morning glory (Ipomoea hederacea), redroot pigweed (Amaranthus retroflexus) and velvetleaf (Abutilon theophrasti) were sown in standard soil in pots. […]
Reported metric: pest or weed control at 250 g/ha (%)
Your answer should be a plain number; it is taken to be in %.

Form field: reported pest or weed control at 250 g/ha of CN1CC(c2ccc(Cl)c([N+](=O)[O-])c2)C(C(=O)Nc2cccc(F)c2F)C1=O (stereo not shown) [Compound 1685]
70

More entries:
Form field: reported pest or weed control at 250 g/ha of COc1c(F)cc(C2CN(C)C(=O)C2C(=O)Nc2cccc(F)c2F)cc1F (stereo not shown) [Compound 1702]
70

Same again, this time with CN1C[C@H](c2cccc(C(F)(F)F)c2)[C@@H](C(=O)Nc2cccc3c2S(=O)(=O)CC3)C1=O (racemic) [Compound 1738]
0

Same again, this time with Cc1cc(C#N)cc(C2CN(C)C(=O)C2C(=O)Nc2cccc(F)c2F)c1 (stereo not shown) [Compound 1691]
30

###

Form field: pest or weed control at 125 g/ha (one value per entry).
Test system: giant foxtail (Setaria faberii)
Protocol details: Test A preemergence
Assay type: in vivo
Experimental conditions: Setaria faberi, pre-emergence, 240 h, 125 g ai/ha, preemergence; 0 to 100 scale where 0 is no effect and 100 is complete control; approx. 10 d; read-out: Foxtail, Giant plant response rating
Text: […]
Your answer should be a plain number; it is taken to be in %.

Example compounds with recorded pest or weed control at 125 g/ha:
Form field: reported pest or weed control at 125 g/ha of `C=C(C)c1ccc([C@H]2CN(C)C(=O)[C@@H]2C(=O)Nc2ccc(F)c(F)c2F)cc1`
90

Same again, this time with `CN1C[C@H](c2cscn2)[C@@H](C(=O)Nc2cccc(F)c2F)C1=O`
0

Same again, this time with `Cc1ccc([C@H]2CN(C)C(=O)[C@@H]2C(=O)Nc2cc(F)c(F)c(F)c2F)cc1`
100

Same again, this time with `CN1CC[C@H](c2cccc(C(F)(F)F)c2)[C@@H](C(=O)Nc2cccc(F)c2Cl)C1=O`
100

More entries:
Form field: reported pest or weed control at 125 g/ha of `CN1C[C@H](c2cc(C(F)F)cs2)[C@@H](C(=O)Nc2cccc(F)c2F)C1=O`
90

Same again, this time with `O=C1NC[C@H](c2ccc(C(F)(F)F)cn2)[C@H]1C(=O)Nc1cccc(F)c1F`
70

Same again, this time with `O=C1NC[C@H](c2csc(C(F)F)c2)[C@H]1C(=O)Nc1ccccc1F`
60

Same again, this time with `CN1C[C@H](c2csc3ccccc23)[C@@H](C(=O)Nc2ccccc2F)C1=O`
90

Same again, this time with `CCc1cc([C@H]2CN(C)C(=O)[C@@H]2C(=O)Nc2cccc(F)c2F)cs1`
90

Same again, this time with `CN1C[C@H](c2csc3c2CCC3)[C@@H](C(=O)Nc2ccccc2S(C)(=O)=O)C1=O`
0

Same again, this time with CN1C[C@H](c2cccc(C(F)(F)F)c2)[C@@H](C(=O)Nc2ccccc2CCO)C1=O (racemic)
90

Source listed as patent US12077503B2.
